Test system: Saccharomyces cerevisiae
assay-method-text: protein stability index of tFT-peptide fusion (C-terminal peptide) (PSI (0-1 scale)); higher = more stable (slower turnover)
condition-label: genetic background: wild type; temperature: 30 C
# protein stability index annotations
Give the figure by itself; no unit, no explanation.

Look up protein stability index with Saccharomyces cerevisiae for this sequence: QKLGIIGKNDLK [PSD1 C-terminal 12 aa]
0.709

# repeat for IVFTSVGAFNIL [YMR172C-A C-terminal 12 aa]
0.735

More entries:
Look up protein stability index with Saccharomyces cerevisiae for this sequence: FIEALAKSVNEL [UGA1 C-terminal 12 aa]
0.689

# repeat for NKRLKKILNNTK [RME1 C-terminal 12 aa]
0.674

# repeat for ITNATFREIDDA [SEC12 C-terminal 12 aa]
0.671

# repeat for GNINDDDDGFFD [PLP2 C-terminal 12 aa]
0.698

# repeat for IAVNYCMFGRSY [YHR020W C-terminal 12 aa]
0.73

# repeat for SSWISKHSSVTD [YDL109C C-terminal 12 aa]
0.686

# repeat for TVGIHSPIDEKC [ATG4 C-terminal 12 aa]
0.669

# repeat for NVGVIRPLLDLQ [YGR069W C-terminal 12 aa]
0.729

# repeat for GSNAEEDDDLYS [CDC48 C-terminal 12 aa]
0.653

# repeat for TPHNHNQNQHTN [RSF1 C-terminal 12 aa]
0.706

# repeat for EKLKLLNSQQKD [PET191 C-terminal 12 aa]
0.722

# repeat for LTPADLQFLFNN [RAD16 C-terminal 12 aa]
0.708

# repeat for SSESEAVKKAKS [CIC1 C-terminal 12 aa]
0.685

# repeat for ILTQGGHIIKKK [MNL2 C-terminal 12 aa]
0.694

# repeat for ESRLFISDGAVF [MON1 C-terminal 12 aa]
0.713

# repeat for IYVCGRLTNDRK [YIL171W-A C-terminal 12 aa]
0.65

# repeat for PQGFEIIELLNF [ROM1 C-terminal 12 aa]
0.718

# repeat for QMVRDEGFEKNP [GPM3 C-terminal 12 aa]
0.644
